Overview of reported IC50 across a group of molecules:
Biological target: HCV NS3 helicase NS3h_1b(con1) (Hepatitis C virus genotype 1b, UniProt Q9WMX2)
Construct: truncated C-terminally His-tagged NS3 proteins lacking the N-terminal protease, called NS3h; His-tag (C); made in house
Sequence (Q9WMX2 1192-1657): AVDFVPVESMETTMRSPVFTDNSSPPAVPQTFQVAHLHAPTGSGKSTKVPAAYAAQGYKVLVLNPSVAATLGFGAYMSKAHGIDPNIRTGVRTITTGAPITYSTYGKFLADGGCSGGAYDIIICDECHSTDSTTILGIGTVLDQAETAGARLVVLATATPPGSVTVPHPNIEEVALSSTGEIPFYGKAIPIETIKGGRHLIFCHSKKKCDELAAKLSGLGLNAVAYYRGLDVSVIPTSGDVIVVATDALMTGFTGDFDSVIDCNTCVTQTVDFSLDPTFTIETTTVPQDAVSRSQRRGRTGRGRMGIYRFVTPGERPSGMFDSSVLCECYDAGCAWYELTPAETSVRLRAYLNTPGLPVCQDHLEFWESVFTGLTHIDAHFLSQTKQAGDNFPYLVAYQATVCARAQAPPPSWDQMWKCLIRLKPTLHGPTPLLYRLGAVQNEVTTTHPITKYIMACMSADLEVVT
Test: biochemical
Format: biochemical, hepatitis C virus genotype 1b(con1)
Conditions: standard HCV helicase MBHA (Table 9); read-out: DNA Unwinding IC50
Method: All oligonucleotides were purchased from Integrated DNA Technologies (IDT, Coralville, Iowa). […] All molecular beacon-based helicase assays (MBHAs) were performed according to known methods (Belon & Frick (2008) supra; Belon & Frick (2009) supra). […] Fluorescence was read before ATP (F0) addition and 30 minutes after ATP was added to 1 mM (F30) using a Tecan Infinite M200 fluorescence microplate reader with excitation and emission wavelengths set to 643 and 670 nm, respectively. […]
Report the figure in µM without appending any unit label.

Inquiry: I would be grateful if you could share the reported IC50 for Cc1ccc2nc(-c3ccc4nc(-c5ccc(NC(=O)c6cc(C(F)(F)F)cc(C(F)(F)F)c6)cc5)sc4c3)sc2c1S(=O)(=O)O .
Reply text: 22

Inquiry: I would be grateful if you could share the reported IC50 for Cc1ccc2nc(-c3ccc(NC(=O)c4ccc(NC(=O)c5ccccc5)cc4)cc3)sc2c1S(=O)(=O)O.N .
Reply text: 81

Inquiry: I would be grateful if you could share the reported IC50 for Cc1ccc2nc(-c3ccc4nc(-c5ccc(NC(=O)c6cccc(C(F)(F)F)c6F)cc5)sc4c3)sc2c1S(=O)(=O)O .
Reply text: 9

###

Overview of reported Int.* (Ratio) (Interference) across a group of molecules:
Molecular target: HCV NS3 helicase NS3h_1b(con1) (Hepatitis C virus genotype 1b, UniProt Q9WMX2)
Construct: truncated C-terminally His-tagged NS3 proteins lacking the N-terminal protease, called NS3h; His-tag (C); made in house
Test: MBHA screen of NCI mechanistic set library at 20 μM (percent inhibition, compound interference)
Type: biochemical
Details: compounds at 20 μM, MBHA with DNA substrate; assay interference calculated with Equation 2
Report the figure in Ratio without appending any unit label.

Inquiry: I would be grateful if you could share the reported Int.* (Ratio) (Interference) for Oc1cccc2cccnc12 [Compound 285166] .
Reply text: 0.95

Inquiry: I would be grateful if you could share the reported Int.* (Ratio) (Interference) for Oc1[nH]c2ccccc2c1N=Nc1c(F)c(F)c(F)c(F)c1F [Compound 116535] .
Reply text: 0.93

###

Target: HCV NS3 helicase NS3h_1b(con1) (Hepatitis C virus genotype 1b, UniProt Q9WMX2)
Construct: truncated C-terminally His-tagged NS3 proteins lacking the N-terminal protease, called NS3h; His-tag (C); made in house
Assay: MBHA screen of NCI mechanistic set library at 20 μM (percent inhibition, compound interference)
Type: biochemical
Details: compounds at 20 μM, MBHA with DNA substrate; calculated from Equation 1; 20 µM
Protocol: All molecular beacon-based helicase assays (MBHAs) were performed according to known methods (Belon & Frick (2008) supra; Belon & Frick (2009) supra). […] Fluorescence was read before ATP (F0) addition and 30 minutes after ATP was added to 1 mM (F30) using a Tecan Infinite M200 fluorescence microplate reader with excitation and emission wavelengths set to 643 and 670 nm, respectively. […]
Overview of reported Inh. (%) (Inhibition) across a group of compounds:
Report the figure in % without appending any unit label.

Reference set, count: 3
[
  {
    "Compound": "Nc1ncnc2c1ncn2C1OC(CO)C(O)C1O (stereo not shown) [Compound 404241]",
    "Inh. (%) (Inhibition)": "−11.9"
  },
  {
    "Compound": "[Mo] [Compound 622124]",
    "Inh. (%) (Inhibition)": 54.2
  },
  {
    "Compound": "[Mo] [Compound 622116]",
    "Inh. (%) (Inhibition)": 3.5
  }
]

Continue with the compound presented below.
Inquiry: I would be grateful if you could share the reported Inh. (%) (Inhibition) for Nc1ncnc2c1ncn2C1OC(CO)C(O)C1O (stereo not shown) [Compound 70422] .
Reply text: 33.9

###

Overview of reported Inh. (%) (Inhibition) across a group of compounds:
Molecular target: HCV NS3 helicase NS3h_1b(con1) (Hepatitis C virus genotype 1b, UniProt Q9WMX2)
Construct: truncated C-terminally His-tagged NS3 proteins lacking the N-terminal protease, called NS3h; His-tag (C); made in house
Assay: MBHA screen of NCI mechanistic set library at 20 μM (percent inhibition, compound interference)
Type: biochemical
Conditions: compounds at 20 μM, MBHA with DNA substrate; calculated from Equation 1
Report the figure in % without appending any unit label.

[
  {
    "Compound": "O=[Se]([O-])[O-].[Na+].[Na+] [Compound 347466]",
    "Measurement Target": "HCV NS3 helicase NS3h_1b(con1) (Hepatitis C virus genotype 1b, UniProt Q9WMX2)",
    "Inh. (%) (Inhibition)": 27.4
  },
  {
    "Compound": "OCCNCN(CNCCO)c1nc(N(CNCCO)CNCCO)nc(N(CNCCO)CNCCO)n1 [Compound 653000]",
    "Measurement Target": "HCV NS3 helicase NS3h_1b(con1) (Hepatitis C virus genotype 1b, UniProt Q9WMX2)",
    "Inh. (%) (Inhibition)": 1.2
  },
  {
    "Compound": "COc1cccc2c1C(=O)c1c(O)c3c(c(O)c1C2=O)C[C@@](O)(C(C)=O)C[C@@H]3O[C@H]1C[C@H](N(Cc2ccccc2)Cc2ccccc2)[C@H](O)[C@H](C)O1.Cl [Compound 268242]",
    "Measurement Target": "HCV NS3 helicase NS3h_1b(con1) (Hepatitis C virus genotype 1b, UniProt Q9WMX2)",
    "Inh. (%) (Inhibition)": 30.6
  },
  {
    "Compound": "COc1ccc(OC)c2nc3c(C(=O)NCCN(C)C)cccc3nc12.Cl [Compound 678917]",
    "Measurement Target": "HCV NS3 helicase NS3h_1b(con1) (Hepatitis C virus genotype 1b, UniProt Q9WMX2)",
    "Inh. (%) (Inhibition)": 28.1
  },
  {
    "Compound": "O=[N+]([O-])c1cc(C(F)(F)F)cc2n[se]nc12 [Compound 627371]",
    "Measurement Target": "HCV NS3 helicase NS3h_1b(con1) (Hepatitis C virus genotype 1b, UniProt Q9WMX2)",
    "Inh. (%) (Inhibition)": "−10.1"
  },
  {
    "Compound": "CCCC[S+]([O-])CC(CO)NC(=O)/C=C\\c1c(C)[nH]c(=O)[nH]c1=O (stereo not shown) [Compound 241509]",
    "Measurement Target": "HCV NS3 helicase NS3h_1b(con1) (Hepatitis C virus genotype 1b, UniProt Q9WMX2)",
    "Inh. (%) (Inhibition)": "−2.4"
  }
]

Inquiry: I would be grateful if you could share the reported Inh. (%) (Inhibition) for C=C1C(C)C2C(Cc3ccccc3)NC(=O)C23C(OC(C)=O)/C=C/C(C)(O)CC(C)C/C=C/C3C1O (stereo not shown) [Compound 305222] .
Reply text: 12.2

###

Target: E. coli SSB-Cy5-dT15 complex (Escherichia coli, UniProt P0AGE0)
Construct: purchased Promega
Sequence (P0AGE0 2-178, one chain of several): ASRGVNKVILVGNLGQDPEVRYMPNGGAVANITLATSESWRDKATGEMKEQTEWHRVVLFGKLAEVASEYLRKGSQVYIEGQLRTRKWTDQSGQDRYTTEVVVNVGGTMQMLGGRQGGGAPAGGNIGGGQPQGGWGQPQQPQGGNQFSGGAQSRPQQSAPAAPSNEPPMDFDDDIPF
Experiment: Escherichia coli SSB Cy5-dT15 binding assay (fluorescence polarization)
Conditions: disruption of Cy5-dT15-SSB complex; read-out: Cy5-dT15-SSB Binding IC50
Measured Attribute: IC50 (µM)
Report the figure in µM without appending any unit label.

[
  {
    "Input Smiles": "Cc1cc2sc(-c3ccc(N)cc3)nc2cc1S(=O)(=O)O",
    "IC50, µM": 19
  }
]

Inquiry: // lookup IC50 | system=E. coli SSB-Cy5-dT15 complex (Escherichia coli, UniProt P0AGE0) | key= Cc1ccc2nc(-c3ccc4nc(-c5ccc(NC(=O)c6cccc(C(F)(F)F)c6F)cc5)sc4c3)sc2c1S(=O)(=O)O
Reply text: 71

Inquiry: // lookup IC50 | system=E. coli SSB-Cy5-dT15 complex (Escherichia coli, UniProt P0AGE0) | key= COc1ccc(NC(=O)Nc2ccc(-c3nc4ccc(-c5nc6ccc(C)c(S(=O)(=O)O)c6s5)cc4s3)cc2)cc1
Reply text: 4

Inquiry: // lookup IC50 | system=E. coli SSB-Cy5-dT15 complex (Escherichia coli, UniProt P0AGE0) | key= Cc1ccc2nc(-c3ccc4nc(-c5ccc(NC(=O)c6cccc(Cl)c6)cc5)sc4c3)sc2c1S(=O)(=O)O
Reply text: 201

Inquiry: // lookup IC50 | system=E. coli SSB-Cy5-dT15 complex (Escherichia coli, UniProt P0AGE0) | key= Cc1ccc2nc(-c3ccc4nc(-c5ccc(NC(=O)c6cc(C(F)(F)F)ccc6F)cc5)sc4c3)sc2c1S(=O)(=O)O
Reply text: 12

Inquiry: // lookup IC50 | system=E. coli SSB-Cy5-dT15 complex (Escherichia coli, UniProt P0AGE0) | key= Cc1ccc2nc(-c3ccc4nc(-c5ccc(NC(=O)c6ccc(N)cc6)cc5)sc4c3)sc2c1S(=O)(=O)O
Reply text: 2

Inquiry: // lookup IC50 | system=E. coli SSB-Cy5-dT15 complex (Escherichia coli, UniProt P0AGE0) | key= Cc1ccc2nc(-c3ccc4nc(-c5ccc(NC(=O)c6c(F)cccc6C(F)(F)F)cc5)sc4c3)sc2c1S(=O)(=O)O
Reply text: 13

Inquiry: // lookup IC50 | system=E. coli SSB-Cy5-dT15 complex (Escherichia coli, UniProt P0AGE0) | key= Cc1ccc2nc(-c3ccc4nc(-c5ccc(NC(=O)c6cccnc6)cc5)sc4c3)sc2c1S(=O)(=O)O
Reply text: 173
